B1: NP_015628.1 (parent)
chain: EQRNSRWNTVLRAVKAKTHHLEP

variants of: B1; assay: protein stability index of a GFP-peptide fusion (GPS, HEK-293T) (PSI 1-6); higher = more stable; conditions: c terminus: native;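 note: lentivirally expressed fusion library, cells FACS-sorted into six equal-sized GFP/DsRed ratio bins, PSI computed from sequencing read fractions per bin weighted by bin number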
quantity: protein stability index
Write the number on its own, no unit after it.

Could you tell me which protein stability index is on file for H19Y ?
3.07

Field entry: K15R
3.08

Field entry: Q2Y
2.97

Field entry: T18A
2.91

Field entry: R12T
3.07

Field entry: E22L
3.02
